TARGET_OR_SYSTEM: pFAK [Y397] (Homo sapiens, UniProt Q05397)
Sequence (Q05397 whole entry): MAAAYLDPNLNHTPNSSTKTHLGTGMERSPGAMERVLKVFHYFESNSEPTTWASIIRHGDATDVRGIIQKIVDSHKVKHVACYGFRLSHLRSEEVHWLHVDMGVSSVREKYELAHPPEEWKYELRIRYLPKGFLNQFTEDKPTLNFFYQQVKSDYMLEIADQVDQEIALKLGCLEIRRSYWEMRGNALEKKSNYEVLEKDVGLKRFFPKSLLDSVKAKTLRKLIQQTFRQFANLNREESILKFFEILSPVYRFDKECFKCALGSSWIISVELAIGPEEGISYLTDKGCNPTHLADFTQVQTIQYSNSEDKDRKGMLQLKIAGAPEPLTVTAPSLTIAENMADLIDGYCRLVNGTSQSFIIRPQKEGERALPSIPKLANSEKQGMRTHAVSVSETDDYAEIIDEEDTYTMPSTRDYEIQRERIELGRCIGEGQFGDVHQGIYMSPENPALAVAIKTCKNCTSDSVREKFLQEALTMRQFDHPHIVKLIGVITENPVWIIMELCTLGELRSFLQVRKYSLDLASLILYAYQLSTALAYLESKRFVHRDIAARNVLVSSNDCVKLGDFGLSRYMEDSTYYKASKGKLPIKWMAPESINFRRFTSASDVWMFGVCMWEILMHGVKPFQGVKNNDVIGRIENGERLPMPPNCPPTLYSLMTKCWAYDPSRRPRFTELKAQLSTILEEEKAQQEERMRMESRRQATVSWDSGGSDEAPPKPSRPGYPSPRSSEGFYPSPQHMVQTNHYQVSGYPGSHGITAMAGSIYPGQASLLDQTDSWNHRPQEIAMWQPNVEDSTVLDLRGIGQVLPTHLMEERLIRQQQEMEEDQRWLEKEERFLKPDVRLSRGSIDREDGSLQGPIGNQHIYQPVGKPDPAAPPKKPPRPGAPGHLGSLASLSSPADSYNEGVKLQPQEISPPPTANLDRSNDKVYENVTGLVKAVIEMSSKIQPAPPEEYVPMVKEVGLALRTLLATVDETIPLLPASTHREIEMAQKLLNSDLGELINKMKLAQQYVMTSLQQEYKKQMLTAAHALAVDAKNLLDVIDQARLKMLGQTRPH
ASSAY_OVERVIEW: pFAK [Y397] sandwich ELISA in IGROV1 cells
CONDITION_LABEL: read-out: IC50 of pFAK [Y397] inhibition; IGROV1 ovarian cancer cells in vitro
PROPERTY_NAME: IC50 (nM)

>>> measured_result("CCOP(=O)(Cc1ccc(Nc2ncc(C(F)(F)F)c(Nc3ccc([C@H]4CC[C@H](N5CCN(C)CC5)CC4)c4c3C(=O)N(C)C4)n2)c(OC)c1)OCC")
0.8

----------
TARGET_OR_SYSTEM: UniProt P12931
Sequence (P12931 whole entry): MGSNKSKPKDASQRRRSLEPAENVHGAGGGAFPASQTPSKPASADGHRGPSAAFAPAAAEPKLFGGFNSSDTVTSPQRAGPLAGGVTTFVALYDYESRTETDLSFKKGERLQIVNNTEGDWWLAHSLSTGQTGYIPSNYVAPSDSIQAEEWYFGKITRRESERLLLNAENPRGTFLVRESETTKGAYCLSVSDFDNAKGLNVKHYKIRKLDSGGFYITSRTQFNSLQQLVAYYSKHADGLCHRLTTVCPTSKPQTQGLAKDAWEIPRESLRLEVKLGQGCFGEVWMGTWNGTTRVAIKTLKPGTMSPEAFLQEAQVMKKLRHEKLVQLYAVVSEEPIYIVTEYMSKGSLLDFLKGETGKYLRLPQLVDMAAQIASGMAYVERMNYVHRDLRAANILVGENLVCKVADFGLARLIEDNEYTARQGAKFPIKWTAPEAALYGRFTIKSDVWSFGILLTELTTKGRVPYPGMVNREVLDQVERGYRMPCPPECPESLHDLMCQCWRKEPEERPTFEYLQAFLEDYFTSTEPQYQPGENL
ASSAY_OVERVIEW: Cell-based kinase assay in cell lysates
CONDITION_LABEL: read-out: OXA-11 IC50 (nM), SRC; cellular mechanistic, cell lysates
PROPERTY_NAME: IC50

>>> measured_result("CCOP(=O)(Cc1ccc(Nc2ncc(C(F)(F)F)c(Nc3ccc([C@H]4CC[C@H](N5CCN(C)CC5)CC4)c4c3C(=O)N(C)C4)n2)c(OC)c1)OCC [OXA-11]")
"> 10000 nM"
